biological target: TNFα / TNFα receptor (TNFα R1/Fc) (Homo sapiens); construct: purchased R&D Systems; experiment: Inhibition of binding of TNFα to the TNFα receptor (plate ELISA competition); conditions: Table 2; read-out: Activity (IC50, inhibition of TNFα binding to TNFα R1/Fc)
Sequence (P01375 77-233 limits assumed, species assumed): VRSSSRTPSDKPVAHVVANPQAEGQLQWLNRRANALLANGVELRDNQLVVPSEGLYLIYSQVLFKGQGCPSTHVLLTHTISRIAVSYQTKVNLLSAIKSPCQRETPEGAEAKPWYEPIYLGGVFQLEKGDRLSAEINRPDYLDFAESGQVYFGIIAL
pIC50: −log10 of the molar value. Numbered stars: 1 amine (or outer) side, 2 acyl side, 3 side chain; on linkers, the order of the positions; unused ones are H or OH. Bridge positions count the residues as written; N and C are the ends. Square brackets hold non-standard residues; d marks the D form. Peptide text beside a SMILES is read from it. * marks the point of attachment. Phe(4-COOH) = N[C@@H](Cc1ccc(C(=O)O)cc1)C(=O)O; Bip = N[C@@H](Cc1ccc(-c2ccccc2)cc1)C(=O)O; dBip = N[C@H](Cc1ccc(-c2ccccc2)cc1)C(=O)O; Phe(4-NH2) = Nc1ccc(C[C@H](N)C(=O)O)cc1; d(hPhe) = N[C@H](CCc1ccccc1)C(=O)O; 2Thi = N[C@@H](Cc1cccs1)C(=O)O; d2Thi = N[C@H](Cc1cccs1)C(=O)O; Suc = O=C(CCC(=O)[*:2])[*:1]; Aib = CC(C)(N)C(=O)O; tBu = CC(C)(C)*

- molecule: "O=C1CN(Cc2ccccc2)C(=O)[C@H](Cc2ccc(-c3ccccc3)cc2)NC(=O)[C@H](Cc2cccs2)NC(=O)COc2ccc(cc2)C[C@@H](C(=O)O)N1"
  pIC50: "< 4.00"
- molecule: "O=C1CCC(=O)N[C@@H](Cc2cccs2)C(=O)N[C@H](Cc2ccc(-c3ccccc3)cc2)C(=O)N[C@H](Cc2ccccc2)C(=O)N[C@H](C(=O)O)Cc2ccc(cc2)N1 [Compound 494] ([2Thi][dBip][dF][Phe(4-NH2)]-OH; linker N-4 via Suc)"
  pIC50: "< 4.00"
- molecule: "CC(C)(C)Oc1ccc(C[C@@H]2NC(=O)[C@@H](Cc3cccs3)NC(=O)CCC(=O)Nc3ccc(cc3)C[C@@H](C(=O)O)NC(=O)[C@@H](Cc3ccccc3)NC2=O)cc1 [Compound 86] ([d2Thi]Y(tBu)[dF][Phe(4-NH2)]-OH; linker N-4 via Suc)"
  pIC50: "< 4.00"
- molecule: "O=C1COc2ccc(cc2)C[C@@H](C(=O)N[C@H](CO)C(=O)O)NC(=O)[C@H](CCc2ccccc2)NC(=O)[C@@H](Cc2ccc(-c3ccccc3)cc2)NC(=O)[C@H](Cc2ccc(-c3ccccc3)cc2)N1"
  pIC50: "> 5.00"
- molecule: "O=C(O)[C@@H]1Cc2ccc(cc2)NC(=O)[C@H](O)[C@@H](O)C(=O)N[C@@H](Cc2cccs2)C(=O)N[C@@H](Cc2ccc(-c3ccccc3)cc2)C(=O)N[C@@H](Cc2ccccc2)C(=O)N1"
  pIC50: "< 4.00"
- molecule: "CC(=O)NCCCC[C@@H]1NC(=O)COc2ccc(cc2)C[C@@H](C(=O)O)NC(=O)[C@H](CCc2ccccc2)NC(=O)[C@@H](Cc2ccc(-c3ccccc3)cc2)NC1=O"
  pIC50: "> 5.00"
- molecule: "O=C1N[C@H](CCc2ccccc2)C(=O)N[C@@H](Cc2ccc(-c3ccccc3)cc2)C(=O)N[C@H](Cc2ccccc2)C(=O)N[C@H](C(=O)O)Cc2ccc1cc2 [Compound 337] ([d(hPhe)][Bip][dF][Phe(4-COOH)]-OH; lactam N-4)"
  pIC50: "< 4.00"
- molecule: "O=C1COc2ccc(cc2)C[C@@H](C(=O)O)NC(=O)[C@H](Cc2ccccc2C(F)(F)F)NC(=O)[C@@H](Cc2ccc(-c3ccccc3)cc2)NC(=O)[C@H](Cc2ccncc2)N1"
  pIC50: "> 5.00"
- molecule: "CC(C)(NC(=O)[C@@H]1Cc2ccc(cc2)NC(=O)CCC(=O)N[C@H](Cc2cccs2)C(=O)N[C@@H](Cc2ccc(-c3ccccc3)cc2)C(=O)N[C@H](Cc2ccccc2)C(=O)N1)C(=O)O [Compound 25] ([d2Thi][Bip][dF][Phe(4-NH2)][Aib]-OH; linker N-4 via Suc)"
  pIC50: "> 5.00"
